experimentalTarget: Histone deacetylase 1 (Homo sapiens)
Sequence (Q13547 whole entry): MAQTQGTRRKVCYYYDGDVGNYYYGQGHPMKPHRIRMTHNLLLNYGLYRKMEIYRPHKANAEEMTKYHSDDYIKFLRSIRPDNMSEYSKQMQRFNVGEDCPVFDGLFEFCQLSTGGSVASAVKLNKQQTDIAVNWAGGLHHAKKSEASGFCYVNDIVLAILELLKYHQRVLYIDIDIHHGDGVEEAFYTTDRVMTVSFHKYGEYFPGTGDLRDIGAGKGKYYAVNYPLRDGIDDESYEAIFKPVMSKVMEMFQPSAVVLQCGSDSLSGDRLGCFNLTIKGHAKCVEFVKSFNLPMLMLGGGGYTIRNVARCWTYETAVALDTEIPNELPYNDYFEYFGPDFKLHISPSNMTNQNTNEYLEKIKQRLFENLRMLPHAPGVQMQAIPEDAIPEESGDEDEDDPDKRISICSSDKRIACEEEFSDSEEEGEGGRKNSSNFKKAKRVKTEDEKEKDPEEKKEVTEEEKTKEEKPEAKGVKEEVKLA
readoutName: IC50 (nM)
Reply with just the number (in nM).

Short answer on Histone deacetylase 1 (Homo sapiens) for `CCCCCCCCSSCC/C=C/[C@@H]1CC(=O)N[C@H](C(C)C)C(=O)N[C@H](C)C(=O)N[C@H](C(C)C)C(=O)NCC(=O)O1` , IC50: 820

* * *

protocolNotes: cells
conditionParameters: Homo sapiens, IGROV-1, 72 h
Recorded log10 IC50 values for a group of compounds are listed next.
Reminder: these figures are log10 of reported IC50, in nM before transformation.

CC(C)[C@H]1NC(=O)C[C@H]2/C=C/CCSSC[C@@H](NC1=O)C(=O)NCc1cc(Br)ccc1CC(=O)O2 = 3.40
CC(=O)SCC/C=C/[C@@H]1CC(=O)N[C@H](C(C)C)C(=O)N[C@H](Cc2ccc(O)cc2)C(=O)N[C@H](C(C)C)c2cn(nn2)CC(=O)O1 = 3.34
CC(=O)SCC/C=C/[C@@H]1CC(=O)N[C@H](C(C)C)C(=O)N[C@H](Cc2cn(C)cn2)C(=O)N[C@H](C(C)C)c2cn(nn2)CC(=O)O1 = 3.18

Value of measured log10 IC50 for the entry `CCCCCCCCSSCC/C=C/[C@@H]1CC(=O)N[C@H](C(C)C)C(=O)N[C@H](C)C(=O)N[C@H](C(C)C)C(=O)NCC(=O)O1` : 1.48

Value of measured log10 IC50 for the entry `CC(C)[C@H]1NC(=O)C[C@H]2/C=C/CCSSC[C@@H](NC1=O)C(=O)NCc1cc(OC(F)(F)F)ccc1CC(=O)O2` : 2.26

Value of measured log10 IC50 for the entry `CC(C)[C@@H]1NC(=O)CC(=O)O[C@@H]2/C=C/CCSSC[C@@H](NC(=O)[C@@H](C(C)C)NC(=O)C2)C(=O)N1` : 4.04

* * *

experimentalTarget: Histone deacetylase 8 (Homo sapiens, UniProt Q9BY41)
Sequence (Q9BY41 whole entry): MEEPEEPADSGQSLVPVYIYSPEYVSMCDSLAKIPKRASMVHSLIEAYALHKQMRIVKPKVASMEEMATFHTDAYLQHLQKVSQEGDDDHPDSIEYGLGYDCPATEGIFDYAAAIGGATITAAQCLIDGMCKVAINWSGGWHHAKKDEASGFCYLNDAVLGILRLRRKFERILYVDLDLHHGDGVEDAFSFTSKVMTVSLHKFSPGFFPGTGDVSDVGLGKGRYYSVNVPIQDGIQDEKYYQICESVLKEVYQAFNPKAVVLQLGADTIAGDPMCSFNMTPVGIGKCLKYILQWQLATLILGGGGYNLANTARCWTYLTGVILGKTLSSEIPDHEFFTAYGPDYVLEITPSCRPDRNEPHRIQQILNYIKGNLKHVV
protocolNotes: Inhibition of HDAC8 (unknown origin) incubated for 1 hr by fluor de lys substrate based fluorescence method
Recorded IC50 values for a group of molecules are listed next.
Answer with the value and then the unit.

CC(=O)SCC/C=C/[C@@H]1CC(=O)N[C@H](C(C)C)C(=O)N[C@H](Cc2ccccc2)C(=O)N[C@H](C(C)C)c2cn(nn2)CC(=O)O1 = 1.8 µM
CC(=O)SCC/C=C/[C@@H]1CC(=O)N[C@H](C(C)C)C(=O)N[C@H](Cc2cn(C)cn2)C(=O)N[C@H](C(C)C)c2cn(nn2)CC(=O)O1 = 1.62 µM

Short answer on Histone deacetylase 8 (Homo sapiens, UniProt Q9BY41) for `CCCCCCCC(=O)SCC/C=C/[C@@H]1CC(=O)N[C@H](C(C)C)C(=O)N[C@H](C)C(=O)N[C@H](C(C)C)C(=O)NCC(=O)O1` , IC50: 14.3 µM

* * *

protocolNotes: cells
conditionParameters: Homo sapiens, IGROV-1, 72 h
Label T when IC50 is strictly below 0.4 µM; at or above that, label F.

CC[C@H]1NC(=O)[C@@H](C(C)C)NC(=O)C[C@@H](/C=C/CCSC(C)=O)OC(=O)CNC(=O)[C@@H](C(C)C)NC1=O = T
CC(C)[C@H]1NC(=O)C[C@H]2/C=C/CCSSC[C@@H](NC1=O)C(=O)N(C)Cc1ccccc1CC(=O)O2 = F
CC(C)[C@H]1NC(=O)C[C@H]2/C=C/CCSSC[C@@H](NC1=O)C(=O)Nc1cccc(c1)CC(=O)O2 = F
CC(C)[C@H]1NC(=O)C[C@H]2/C=C/CCSSC[C@@H](NC1=O)C(=O)N[C@H](C(C)C)c1cn(nn1)CC(=O)O2 = T
CC(C)[C@H]1NC(=O)C[C@H]2/C=C/CCSSC[C@@H](NC1=O)C(=O)NCc1cc(-c3ccccc3)ccc1CC(=O)O2 = T
CCCCCCCC(=O)SCC/C=C/[C@@H]1CC(=O)N[C@H](C(C)C)C(=O)N[C@H](C)C(=O)N[C@H](C(C)C)C(=O)NCC(=O)O1 = T
CC(=O)SCC/C=C/[C@@H]1CC(=O)N[C@H](Cc2ccccc2)C(=O)N[C@H](C)C(=O)N[C@H](C(C)C)c2cn(nn2)CC(=O)O1 = T
C=C(C)[C@H]1NC(=O)[C@H]2CSSCC/C=C/[C@H](CC(=O)N[C@H](C)C(=O)N2)OC(=O)C[C@@H]1O = T
CC(C)[C@H]1NC(=O)C[C@H]2/C=C/CCSSC[C@@H](NC1=O)C(=O)Nc1ccccc1C(=O)NCC(=O)O2 = F
CC(C)[C@H]1NC(=O)C[C@H]2/C=C/CCSSC[C@@H](NC1=O)C(=O)NCc1[nH]c3ccccc3c1CC(=O)O2 = F

[in] Lab note: confirm whether the reported IC50 for this compound is below 0.4 µM, equality not counting. compound: `CC(C)[C@H]1NC(=O)C[C@H]2/C=C/CCSSC[C@@H](NC1=O)C(=O)NC1CCC(CC1)C(=O)O2`
[out] F

[in] Lab note: confirm whether the reported IC50 for this compound is below 0.4 µM, equality not counting. compound: `CC(=O)SCC/C=C/[C@@H]1CC(=O)N[C@H](C(C)C)C(=O)N[C@H](Cc2ccccc2)C(=O)N[C@H](C(C)C)c2cn(nn2)CC(=O)O1`
[out] T

[in] Lab note: confirm whether the reported IC50 for this compound is below 0.4 µM, equality not counting. compound: `CC(C)[C@H]1NC(=O)C[C@H]2/C=C/CCSSC[C@@H](NC1=O)C(=O)NCc1ccc(Cl)cc1CC(=O)O2`
[out] F

[in] Lab note: confirm whether the reported IC50 for this compound is below 0.4 µM, equality not counting. compound: `CC(C)[C@H]1NC(=O)C[C@H]2/C=C/CCSSC[C@@H](NC1=O)C(=O)NCc1ccc(Br)cc1CC(=O)O2`
[out] T
